Where do these numbers come from? They come from ChEMBL document CHEMBL3576816.

- method.notes: Cytotoxicity against BHK cells infected with Dengue virus replicon assessed as cell viability at 10 uM after 3 days by CellTiter 96 aqueous one solution cell proliferation assay relative to control
- Type: cell-based, Mesocricetus auratus
- applied.conditions: hamster, bhk, 72 h, 10 µM
readout.name: Activity (%)
Output spec: scalar in %, unitless text.

Exam item: Let me know recorded Activity for Cc1cn([C@H]2C[C@H](NC(=O)c3ccc4ccccc4c3)[C@@H](CO)O2)c(=O)[nH]c1=O , thanks.
Marked response: 97

Exam item: Let me know recorded Activity for Cc1cn([C@H]2C[C@H](n3nncc3-c3ccccc3)[C@@H](CO)O2)c(=O)[nH]c1=O , thanks.
Marked response: 100

Exam item: Let me know recorded Activity for Cc1cn([C@H]2C[C@H](n3nncc3C3CCCCC3)[C@@H](CO[Si](C)(C)C(C)(C)C)O2)c(=O)[nH]c1=O , thanks.
Marked response: 93

Exam item: Let me know recorded Activity for Cc1cn([C@H]2C[C@H](n3nncc3COc3ccccc3)[C@@H](CO[Si](C)(C)C(C)(C)C)O2)c(=O)[nH]c1=O , thanks.
Marked response: 84

Exam item: Let me know recorded Activity for Cc1cn([C@H]2C[C@H](n3cc(-c4ccc(-c5ccccc5)cc4)nn3)[C@@H](CO)O2)c(=O)[nH]c1=O , thanks.
Marked response: 100

Exam item: Let me know recorded Activity for Cc1cn([C@H]2C[C@H](NC(=O)C(c3ccccc3)(c3ccccc3)c3ccccc3)[C@@H](CO[Si](C)(C)C(C)(C)C)O2)c(=O)[nH]c1=O , thanks.
Marked response: 100

Exam item: Let me know recorded Activity for COc1ccc2cc(-c3cnnn3[C@H]3C[C@H](n4cc(C)c(=O)[nH]c4=O)O[C@@H]3CO[Si](C)(C)C(C)(C)C)ccc2c1 , thanks.
Marked response: 86

Exam item: Let me know recorded Activity for Cc1cn([C@H]2C[C@H](N3C(=O)CSC3c3ccccc3)[C@@H](CO[Si](C)(C)C(C)(C)C)O2)c(=O)[nH]c1=O (mixture of isomers) , thanks.
Marked response: 98

Exam item: Let me know recorded Activity for COc1ccc2cc(-c3cnnn3[C@H]3C[C@H](n4cc(C)c(=O)[nH]c4=O)O[C@@H]3COC3CCCCO3)ccc2c1 (stereo partly specified) , thanks.
Marked response: 92

Exam item: Let me know recorded Activity for COc1ccc2cc(-c3cnnn3[C@H]3C[C@H](n4cc(C)c(=O)[nH]c4=O)O[C@@H]3CO)ccc2c1 , thanks.
Marked response: 100

Exam item: Let me know recorded Activity for COc1ccc2cc(-c3cnnn3[C@H]3C[C@H](n4cc(C)c(=O)[nH]c4=O)O[C@@H]3CO[Si](c3ccccc3)(c3ccccc3)C(C)(C)C)ccc2c1 , thanks.
Marked response: 11

Exam item: Let me know recorded Activity for Cc1cn([C@H]2C[C@H](N3C(=O)CSC3c3c4ccccc4cc4ccccc34)[C@@H](CO[Si](C)(C)C(C)(C)C)O2)c(=O)[nH]c1=O (mixture of isomers) , thanks.
Marked response: 97

Exam item: Let me know recorded Activity for Cc1cn([C@H]2C[C@H](NC(=O)c3cccc4ccccc34)[C@@H](CO)O2)c(=O)[nH]c1=O , thanks.
Marked response: 98

Exam item: Let me know recorded Activity for Cc1cn([C@H]2C[C@H](N=[N+]=[N-])[C@@H](CO[Si](C)(C)C(C)(C)C)O2)c(=O)[nH]c1=O , thanks.
Marked response: 87

Exam item: Let me know recorded Activity for Cc1cn([C@H]2C[C@H](n3nncc3-c3ccc(Oc4ccccc4)cc3)[C@@H](CO[Si](C)(C)C(C)(C)C)O2)c(=O)[nH]c1=O , thanks.
Marked response: 73

Exam item: Let me know recorded Activity for COc1ccc2cc(-c3cnnn3[C@H]3C[C@H](n4cc(C)c(=O)[nH]c4=O)O[C@@H]3COC(C)=O)ccc2c1 , thanks.
Marked response: 97

Exam item: Let me know recorded Activity for CCOCOC[C@H]1O[C@@H](n2cc(C)c(=O)[nH]c2=O)C[C@@H]1n1nncc1-c1ccc2cc(OC)ccc2c1 , thanks.
Marked response: 95
